- SYSTEM UNDER TEST: human TLR8 (Homo sapiens)
- Sequence (Q9NR97 27-1041): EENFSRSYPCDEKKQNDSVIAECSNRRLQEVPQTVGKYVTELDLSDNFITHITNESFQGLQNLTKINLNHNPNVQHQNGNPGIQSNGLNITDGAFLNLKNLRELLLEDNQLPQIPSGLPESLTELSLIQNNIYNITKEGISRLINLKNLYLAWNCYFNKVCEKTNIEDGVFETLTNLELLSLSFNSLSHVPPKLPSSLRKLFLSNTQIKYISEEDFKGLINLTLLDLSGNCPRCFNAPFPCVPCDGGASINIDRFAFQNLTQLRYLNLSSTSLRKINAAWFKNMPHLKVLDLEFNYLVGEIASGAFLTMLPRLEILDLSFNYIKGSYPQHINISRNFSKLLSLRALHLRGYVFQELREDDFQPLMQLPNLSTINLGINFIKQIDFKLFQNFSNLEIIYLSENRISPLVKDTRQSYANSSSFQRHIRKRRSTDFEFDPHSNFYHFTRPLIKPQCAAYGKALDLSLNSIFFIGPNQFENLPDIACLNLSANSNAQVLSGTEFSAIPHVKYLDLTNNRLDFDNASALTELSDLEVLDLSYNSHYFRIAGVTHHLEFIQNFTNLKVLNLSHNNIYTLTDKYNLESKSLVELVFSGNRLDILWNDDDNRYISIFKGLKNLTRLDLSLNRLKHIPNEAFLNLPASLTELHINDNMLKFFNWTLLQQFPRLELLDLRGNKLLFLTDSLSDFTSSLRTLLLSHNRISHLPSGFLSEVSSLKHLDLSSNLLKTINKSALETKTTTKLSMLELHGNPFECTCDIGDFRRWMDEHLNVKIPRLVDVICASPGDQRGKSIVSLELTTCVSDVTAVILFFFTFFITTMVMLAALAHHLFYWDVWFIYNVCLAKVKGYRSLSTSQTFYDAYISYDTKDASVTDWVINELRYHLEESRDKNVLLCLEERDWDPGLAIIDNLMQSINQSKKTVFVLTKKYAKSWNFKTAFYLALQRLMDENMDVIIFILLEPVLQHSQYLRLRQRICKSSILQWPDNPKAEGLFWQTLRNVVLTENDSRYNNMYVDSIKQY
- EXPERIMENT NOTES: TLR8 inhibition reporter assay (HEK-Blue cells, SEAP reporter, R848 stimulation)
- CONDITION DETAILS: HEK-Blue cells overexpressing human TLR8, SEAP reporter, R848 15.9 μM
pIC50: −log10 of the molar value.
VALUE TYPE: pIC50

compound=Cc1cc(-c2[nH]c3ccc(C4CCN(C(=O)CN5CCS(=O)(=O)CC5)CC4)cc3c2C(C)C)cn2nnnc12 system_under_test="human TLR8 (Homo sapiens)" value_type=pIC50 recorded_measurement="> 7.00"
compound=Cc1nc2c(-c3[nH]c4ccc(C5CCN(CC(=O)N(C)C)CC5)cc4c3C(C)C)ccc(C)n2n1 system_under_test="human TLR8 (Homo sapiens)" value_type=pIC50 recorded_measurement="6.00 to 7.00"
compound=Cc1cc(-c2[nH]c3ccc(C4CCN(CCC(F)(F)F)CC4)cc3c2C(C)C)cn2nnnc12 system_under_test="human TLR8 (Homo sapiens)" value_type=pIC50 recorded_measurement="> 7.00"
compound=Cc1c(-c2[nH]c3ccc(C4CCN(CC(=O)N(C)C)CC4)cc3c2C(C)C)cn2ccnc2c1C system_under_test="human TLR8 (Homo sapiens)" value_type=pIC50 recorded_measurement="> 7.00"

State pIC50 (human TLR8 (Homo sapiens)) of Cc1cn2cc(-c3[nH]c4ccc(C5CCN(C(=O)CC(C)(C)O)CC5)cc4c3CC(F)F)ccc2n1 .
4.30 to 6.00

State pIC50 (human TLR8 (Homo sapiens)) of CC(C)c1c(-c2ccnc3[nH]ncc23)[nH]c2ccc(C3CCN(Cc4ccc(N5CCOCC5)cc4)CC3)cc12 .
> 7.00

State pIC50 (human TLR8 (Homo sapiens)) of CCc1c(-c2ccnc3[nH]ccc23)[nH]c2ccc(C3CCN(C4CCN(C(C)C)CC4)CC3)cc12 .
> 7.00

State pIC50 (human TLR8 (Homo sapiens)) of CC(C)c1c(-c2ccnc3c2CC(=O)N3)[nH]c2ccc(C3CCNCC3)cc12 .
> 7.00

State pIC50 (human TLR8 (Homo sapiens)) of Cc1cc(-c2[nH]c3ccc(C4CCN(C(=O)CN(C)C)CC4)cc3c2C(C)C)cc2nccnc12 .
> 7.00
